The origin of these recorded values is the supplement of paper PMC10567573.

protein stability index values by entry
B1: VPS39 (parent)
chain: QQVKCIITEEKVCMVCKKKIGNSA

# Variants of: B1
# Test method notes: protein stability index of a GFP-peptide fusion (GPS, HEK-293T) (PSI 1-6); higher = more stable;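 further: lentivirally expressed fusions sorted by FACS into six bins by GFP to DsRed ratio, PSI derived from sequencing read proportions per bin multiplied by bin number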
# Run parameters: c terminus: a fixed tail appended
Measured metric: protein stability index

> print(dat)
                      item.sequence  endpoint.value
 1  QQVKCIITEEKVCMVCKKKINNSA [G21N]            3.01
 2  QQVKCIITEEKVCMVCKKKFGNSA [I20F]            3.06
 3  QQVKCIITEPKVCMVCKKKIGNSA [E10P]            2.69
 4  QQVKCIITEEKVCMVCKKKVGNSA [I20V]            1.95
 5  QQVKCIITEEKVCMVCKKKIGWSA [N22W]            1.81
 6  QQVKCIITEYKVCMVCKKKIGNSA [E10Y]            2.65
 7   QSVKCIITEEKVCMVCKKKIGNSA [Q2S]            3.77
 8  QQVKCIITEEKVCVVCKKKIGNSA [M14V]             2.8
 9  QQVKCIITEEKLCMVCKKKIGNSA [V12L]            2.86
10   QQTKCIITEEKVCMVCKKKIGNSA [V3T]            2.82
